# PROCEDURE SUMMARY: RP, Merck Supelco Ascentis Express C18, 100 × 2.1 mm, 2 µm, 40 °C, 0.4 mL/min, estimated dead time 0.55 min; A: water + 0.1% formic acid, pH 3; B: acetonitrile + 0.1% formic acid, pH 3; gradient (min/%B) 0/5 2/5 17/99.9 20/99.9
# RECORDED CONDITIONS: stereoisomer not certain
TEST READOUT: LC retention time (min)

NC(Cc1cc(I)c(Oc2ccc(O)c(I)c2)c(I)c1)C(=O)O (centres undefined) :: 7

A: CC(CCC(=O)O)C1CCC2C3C(O)CC4CC(O)CCC4(C)C3CCC12C (centres undefined) [URSODEOXYCHOLATE]
B: Nc1nc2nc[nH]c2c(=O)[nH]1
C: O=C(O)CCCCCC(=O)O [6-CARBOXYHEXANOATE]
D: O=C(O)CCCCCCCCC(=O)O [SEBACATE]
Descending sort on LC retention time required. List each label, following the requested order. A, D, C, B

I: CC(=O)NC(Cc1c[nH]c2ccccc12)C(=O)O (centres undefined)
II: CC(=O)NC(C)C(=O)O (centres undefined)
III: CC(=O)OCC(=O)C1(O)CCC2C3CCC4=CC(=O)CCC4(C)C3C(O)CC21C (centres undefined) [CORTISOL 21-ACETATE]
IV: CCCCCCCCC=CCCCCCCCC(=O)OCC(O)CO (centres undefined)
Hi! Can you put these in order of LC retention time, lowest number first? List each label, following the requested order. II, I, III, IV
(II: 0.74 min, I: 5.08 min, III: 8.05 min, IV: 15.1 min)

I: O=C(O)c1ccccc1[O-] [SALICYLATE]
II: Cc1ncc(CO)c(C(=O)O)c1O [4-PYRIDOXATE]
III: O=C(O)c1ccccc1 [BENZOATE]
Descending sort on LC retention time required. List each label, following the requested order. III, I, II
(III: 5.23 min, I: 3.59 min, II: 0.757 min)

I: OCC(O)C(O)CO (centres undefined)
II: CC1NC(=O)NC1CCCCCC(=O)O (centres undefined)
Select one: I or II . Criterion: greater recorded LC retention time. Your answer should be the label of the entry you select. II

P: O=C(O)C(O)c1ccc(O)c(O)c1 (centres undefined) [3,4 DIHYDROXYMANDELATE]
Q: O=C(C=Cc1ccc(O)c(O)c1)OC(Cc1ccc(O)c(O)c1)C(=O)O (centres undefined) [ROSMARINATE]
Select one: P or Q . Criterion: greater recorded LC retention time. Your answer should be the label of the entry you select. Q
(Q: 5.6 min, P: 0.677 min)

P: Cc1cn(C2CC(O)C(COP(=O)(O)OP(=O)(O)OC3OC(CO)C(O)C(O)C3O)O2)c(=O)[nH]c1=O (centres undefined)
Q: Cc1cc2nc[nH]c2cc1C
Select one: P or Q . Criterion: greater recorded LC retention time. Your answer should be the label of the entry you select. Q
(Q: 3.76 min, P: 0.667 min)

a: O=c1[nH]c(=O)c2ncn(C3OC(CO)C(O)C3O)c2[nH]1 (centres undefined)
b: CCCCCCCCCC(C)=O
c: O=C(O)Cc1cccc(O)c1 [3-HYDROXYPHENYLACETATE]
d: CC(=CC(=O)O)C(=O)O [2-METHYLMALEATE]
Hi! Can you put these in order of LC retention time, lowest number first? List each label, following the requested order. a, d, c, b

I: O=c1ccn(C2CC(O)C(CO)O2)c(=O)[nH]1 (centres undefined)
II: O=C(O)C(O)Cc1ccc(O)cc1 (centres undefined) [HYDROXYPHENYLLACTATE]
Lower value for measured LC retention time? Options: I , II Your answer should be the label of the entry you select. I

----------
# PROCEDURE SUMMARY: RP, Merck Supelco Ascentis Express C18, 100 × 2.1 mm, 2 µm, 40 °C, 0.2 mL/min, estimated dead time 1.1 min; A: water + 0.1% formic acid, pH 3; B: acetonitrile + 0.1% formic acid, pH 3; gradient (min/%B) 0/5 2/5 17/99.9 20/99.9
# RECORDED CONDITIONS: stereoisomer not certain
TEST READOUT: LC retention time (min)

O=C(O)Cc1cccc(O)c1 [3-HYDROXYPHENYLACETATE] :: 7
O=C(O)C(=O)Cc1c[nH]c2ccccc12 [INDOLE-3-PYRUVATE] :: 7
CC(=O)Oc1cccc(O)c1 [RESORCINOL MONOACETATE] :: 7

----------
# PROCEDURE SUMMARY: RP, Merck Supelco Ascentis Express C18, 100 × 2.1 mm, 2 µm, 40 °C, 0.4 mL/min, estimated dead time 0.55 min; A: water + 0.1% formic acid, pH 3; B: acetonitrile + 0.1% formic acid, pH 3; gradient (min/%B) 0/5 2/5 17/99.9 20/99.9
# RECORDED CONDITIONS: stereoisomer not certain
TEST READOUT: LC retention time (min)

CC(=O)Oc1ccccc1 [PHENYL ACETATE] :: 3.93

1: CSCCC(O)C(=O)O (configuration not stated) [2-HYDROXY-4-(METHYLTHIO)BUTANOATE]
2: CC(C(=O)O)C(=O)O [METHYLMALONATE]
3: O=C(O)CCCCCCCC(=O)O [AZELATE]
4: CCCCCCCCCCCCCCCC(=O)O [PALMITATE]
Descending sort on LC retention time required. List each label, following the requested order. 4, 3, 1, 2
(4: 15.7 min, 3: 5.49 min, 1: 1.86 min, 2: 0.807 min)

P: NC(Cc1cc(I)c(Oc2cc(I)c(O)c(I)c2)c(I)c1)C(=O)O (configuration not stated)
Q: O=Cc1cccc(O)c1 [3-HYDROXYBENZALDEHYDE]
R: Oc1ccccc1O
Descending sort on LC retention time required. List each label, following the requested order. P, Q, R
(P: 7.65 min, Q: 3.59 min, R: 1.52 min)

I: CC12CCC(=O)C=C1CCC1C2C(O)CC2(C)C1CCC2(O)C(=O)CO (configuration not stated)
II: Nc1nc2ncc(CNc3ccc(C(=O)NC(CCC(=O)O)C(=O)O)cc3)nc2c(=O)[nH]1 (configuration not stated) [FOLATE]
Select one: I or II . Criterion: greater recorded LC retention time. Your answer should be the label of the entry you select. I
(I: 6.65 min, II: 3.58 min)

----------
# PROCEDURE SUMMARY: RP, Merck Supelco Ascentis Express C18, 100 × 2.1 mm, 2 µm, 39 °C, 0.3 mL/min, estimated dead time 0.73 min; A: water + 0.1% formic acid, pH 3; B: acetonitrile + 0.1% formic acid, pH 3; gradient (min/%B) 0/5 2/5 17/99.9 20/99.9
# RECORDED CONDITIONS: stereoisomer not certain
TEST READOUT: LC retention time (min)

O=C(O)c1cc(=O)c2cccc(O)c2[nH]1 [XANTHURENATE] :: 3.33
O=C(O)Cc1cccc(O)c1 [3-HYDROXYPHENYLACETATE] :: 5.94
Nc1nc2c(ncn2C2OC(CO)C(O)C2O)c(=O)[nH]1 (centres undefined) :: 0.89
NC(Cc1c[nH]c2ccccc12)C(=O)O (centres undefined) :: 2.72

1: Cc1cc2nc3[nH]c(=O)[nH]c(=O)c3nc2cc1C
2: O=c1cccc(O)[nH]1 [2,6-DIHYDROXYPYRIDINE]
Select one: 1 or 2 . Criterion: greater recorded LC retention time. Your answer should be the label of the entry you select. 1

A: O=C(O)/C=C/c1ccccc1 [TRANS-CINNAMATE]
B: Cn1c(=O)[nH]c2ncn(C)c2c1=O
C: CCCCCCCCC=CCCCCCCCC(=O)OCC(O)CO (centres undefined)
D: CC(=O)NCCc1c[nH]c2ccc(O)cc12
Descending sort on LC retention time required. List each label, following the requested order. C, A, D, B

1: O=C(C=Cc1ccc(O)c(O)c1)OC(Cc1ccc(O)c(O)c1)C(=O)O (centres undefined) [ROSMARINATE]
2: O=C(O)c1ccc[nH]1 [PYRROLE-2-CARBOXYLATE]
3: O=C(O)c1ccc2ccccc2c1O [1-HYDROXY-2-NAPHTHOATE]
Descending sort on LC retention time required. List each label, following the requested order. 3, 1, 2

----------
# PROCEDURE SUMMARY: RP, Merck Supelco Ascentis Express C18, 100 × 2.1 mm, 2 µm, 40 °C, 0.25 mL/min, estimated dead time 0.88 min; A: water + 0.1% formic acid, pH 3; B: acetonitrile + 0.1% formic acid, pH 3; gradient (min/%B) 0/5 2/5 17/99.9 20/99.9
# RECORDED CONDITIONS: stereoisomer not certain
TEST READOUT: LC retention time (min)
Response body: numeric value in min, unit text excluded.

Recorded results for 2 compounds are shown here.
COc1cc(CC(=O)O)ccc1O [HOMOVANILLATE] :: 4.9
O=C/C=C/c1ccccc1 [TRANS-CINNAMALDEHYDE] :: 11.1

Lab note: next compound to report on.
Dear colleague, I am looking for the recorded LC retention time of the following compound: COc1cc(CCN)ccc1O [3-METHOXYTYRAMINE] 1.37
